- experimentalSystem: T1, human MC4 receptor (human, UniProt P32245 1-332)
- T1 construct: whole, on cells; Assayed as membranes of BHK cells stably expressing the receptor; also called melanocortin receptor subtype 4; melanocortin receptor 4
- T1 sequence (P32245 whole entry): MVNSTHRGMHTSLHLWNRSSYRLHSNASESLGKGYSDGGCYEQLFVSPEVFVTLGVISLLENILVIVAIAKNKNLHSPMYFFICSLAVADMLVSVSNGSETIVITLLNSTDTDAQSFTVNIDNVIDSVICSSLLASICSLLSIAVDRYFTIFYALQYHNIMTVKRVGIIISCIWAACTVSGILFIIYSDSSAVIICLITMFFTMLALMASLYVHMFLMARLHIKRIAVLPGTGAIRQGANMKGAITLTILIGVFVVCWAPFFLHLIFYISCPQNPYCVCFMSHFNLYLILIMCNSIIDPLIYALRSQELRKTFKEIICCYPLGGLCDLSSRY
- testSummary: 125I-NDP-α-MSH displacement, BHK-human MC4 membranes (Assay V);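 further: Filter-retained radioactivity read by gamma counting, with affinity obtained through non-linear regression fitting of the binding curves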
Positions of bridges follow the written chain, without caps; N, C: chain ends. Non-standard residues stand in square brackets, D forms with d. Groups on a side chain read outwards from the residue. Primed or numbered codes have the meaning given here. *: point of attachment. X2 = (2-(2-(16-(tetrazol-5-yl)hexadecanoylamino)ethoxy)ethoxy)acetyl, O=C(CCCCCCCCCCCCCCCc1nn[nH]n1)NCCOCCOCC(=O)*; X5 = NH(2-(2-(2-(17-carboxyheptadecanoylamino)ethoxy)ethoxy)ethyl), O=C(O)CCCCCCCCCCCCCCCCC(=O)NCCOCCOCCN*; biscarboxymethyl = Lys(biscarboxymethyl) = Nepsilon-bis(carboxymethyl)-L-lysine; bis(carboxymethyl) = Lys(biscarboxymethyl) = N6-bis(carboxymethyl)-L-lysine; Palmitoyl(16-(5-tetrazolyl)) = O=C(CCCCCCCCCCCCCCCc1nnn[nH]1)*; biscarboxymethyl(3) = Nepsilon-bis(carboxymethyl) on Lys; biscarboxymethyl″ = N6-bis(carboxymethyl) on L-lysine; C16 diacid = O=C(O)CCCCCCCCCCCCCCC(=O)*; NTA = O=C(O)CN(CC(=O)O)CC(=O)*; hCys = N[C@@H](CCS)C(=O)O; Orn = NCCC[C@H](N)C(=O)O; Dab = NCC[C@H](N)C(=O)O; Dap = NC[C@H](N)C(=O)O; AEEA = NCCOCCOCC(=O)O
Below, each entry is listed with its recorded Ki.
Lab book: enter the figure in nM, no units written.

Ac-[hCys]H[dF]RWCPPKEK(bis(carboxymethyl))K([AEEA-C16 diacid])-NH2 (disulfide 1-6); 17
Ac-EH[dF]RW[Orn]PPRDK(biscarboxymethyl)K(X2)-NH2 (lactam 1-6); 1.42
Ac-[Dap]H[dF]RWDPPRDK(biscarboxymethyl(3))K([AEEA-Palmitoyl(16-(5-tetrazolyl))])-NH2 (lactam 1-6); 5.16
Ac-[Orn]H[dF]RWDPPHEK(biscarboxymethyl)K(X2)-NH2 (lactam 1-6); 1.43
Ac-[hCys]S[dF]RWCPPKEK(biscarboxymethyl″)K(X2)-NH2 (disulfide 1-6); 10
Ac-[Dab]H[dF]RWDPSSSK(biscarboxymethyl(3))SS-X5 (lactam 1-6); 10.8
Ac-EH[dF]RW[Dap]PPRDK(biscarboxymethyl(3))K([AEEA-Palmitoyl(16-(5-tetrazolyl))])-NH2 (lactam 1-6); 13
Ac-[Dab]H[dF]RWDPPHEK(biscarboxymethyl(3))K([AEEA-Palmitoyl(16-(5-tetrazolyl))])-NH2 (lactam 1-6); 76

Entry Ac-DH[dF]RW[Dap]PPRDK(NTA)K(X2)-NH2 (lactam 1-6; SMILES CC(=O)N[C@H]1CC(=O)NC[C@@H](C(=O)N2CCC[C@H]2C(=O)N2CCC[C@H]2C(=O)N[C@@H](CCCNC(=N)N)C(=O)N[C@@H](CC(=O)O)C(=O)N[C@@H](CCCCNC(=O)CN(CC(=O)O)CC(=O)O)C(=O)N[C@@H](CCCCNC(=O)COCCOCCNC(=O)CCCCCCCCCCCCCCCc2nn[nH]n2)C(N)=O)NC(=O)[C@H](Cc2c[nH]c3ccccc23)NC(=O)[C@H](CCCNC(=N)N)NC(=O)[C@@H](Cc2ccccc2)NC(=O)[C@H](Cc2c[nH]cn2)NC1=O) , Ki reported as 107

Entry Ac-[Orn]H[dF]RWDPPRDK(biscarboxymethyl)K(X2)-NH2 (lactam 1-6) , Ki reported as 0.85
